Molecular target: T1, ClfAPWY (S. aureus strain Newman, UniProt Q53653 221-559)
T1 construct: also called triple mutant
T1 sequence: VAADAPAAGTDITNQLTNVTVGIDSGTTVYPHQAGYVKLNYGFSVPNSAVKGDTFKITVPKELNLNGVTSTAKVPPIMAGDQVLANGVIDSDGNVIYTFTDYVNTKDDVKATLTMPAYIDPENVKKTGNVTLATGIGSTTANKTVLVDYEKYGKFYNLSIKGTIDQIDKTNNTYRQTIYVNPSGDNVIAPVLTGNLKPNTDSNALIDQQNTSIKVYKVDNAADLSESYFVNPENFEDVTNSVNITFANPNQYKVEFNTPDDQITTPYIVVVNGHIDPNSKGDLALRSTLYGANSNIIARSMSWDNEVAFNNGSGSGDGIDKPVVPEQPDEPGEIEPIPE
Assay: ITC; 0.5 mM P16 injected into 30 µM ClfAPWY, 30 °C; ITC, P16 peptide
REPORTED_METRIC: Kd

Problem: Identify the reported Kd for the following entry. GEGQQHHLGGAKQAGAV (domain: γ-peptide; Position 410 probably counts on the mature γ-chain; also called P16 peptide; Fg-γ P16 peptide) [Fg γ-peptide P16]
Solution: ~5.8 µM
